target: human RIP1 kinase domain (2-375) (Homo sapiens (Human), UniProt Q13546); assay: biochemical; format: biochemical; settings: Table 1; apparent Ki (Morrison tight-binding fit); 50 nM RIP1 kinase domain, 50 uM ATP, 2 hours incubation; read-out: RIP1 Ki
Sequence (Q13546 2-375): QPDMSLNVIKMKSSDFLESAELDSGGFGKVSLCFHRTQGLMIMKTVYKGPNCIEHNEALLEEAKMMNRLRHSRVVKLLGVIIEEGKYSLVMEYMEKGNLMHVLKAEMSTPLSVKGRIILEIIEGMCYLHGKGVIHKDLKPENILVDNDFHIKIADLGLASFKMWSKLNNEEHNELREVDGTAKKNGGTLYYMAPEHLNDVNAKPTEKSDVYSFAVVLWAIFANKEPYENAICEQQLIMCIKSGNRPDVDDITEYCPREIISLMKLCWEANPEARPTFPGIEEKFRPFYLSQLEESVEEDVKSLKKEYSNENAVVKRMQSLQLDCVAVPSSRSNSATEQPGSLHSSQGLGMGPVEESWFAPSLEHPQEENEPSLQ
experimental.endpoint: Ki
Include the unit right after the number.

CN1C(=O)[C@@H](NC(=O)c2ccc3c(n2)CCCC3)COc2ccccc21 [Example 51]    8900 nM
C[C@@H]1CCc2noc(C(=O)N[C@H]3COc4ccccc4N(C)C3=O)c2C1 [Example 71]    19.2 nM
CC12Cc3[nH]nc(C(=O)N[C@H]4CCc5cc(Cl)ccc5NC4=O)c3CC1C2 (stereo partly shown) [Example 50]    3900 nM
CC1CCc2onc(C(=O)N[C@H]3COc4ccccc4NC3=O)c2C1 (stereo partly shown) [Example 63]    740 nM
Cc1cnn2c1N(C)C(=O)C(NC(=O)c1nnc(Cc3ccccc3)[nH]1)CC2 (stereo not shown) [Example 31]    140 nM
CN1C(=O)[C@@H](NC(=O)c2n[nH]c3ccccc23)COc2ccccc21 [Example 33]    3500 nM
CN1C(=O)[C@@H](NC(=O)c2n[nH]c3c2CC(c2ccccc2)CC3)COc2ccccc21 (stereo partly shown) [Example 24]    27.9 nM
CCC1CCc2n[nH]c(C(=O)N[C@H]3COc4ccccc4N(C)C3=O)c2C1 (stereo partly shown) [Example 74]    13 nM
C[C@H]1CCc2noc(C(=O)N[C@H]3COc4ccccc4N(C)C3=O)c2C1 [Example 69]    84.5 nM

Now take the following compound into account.
GET /values?readout=Ki&item= CN1C(=O)[C@@H](NC(=O)c2cc3c(cn2)COC3(C)C)COc2ccccc21 [Example 22]
898 nM

Source listed as patent US10988459B2.
